Every entry's value here was drawn from the supplement of paper PMC9112550.

Tested on: Escherichia coli TOP10;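 also: peptides expressed intracellularly from a pBAD plasmid library in pooled LB shake-flask culture, induced with 0.3% L-arabinose, DNA abundance read by NGS, three biological replicates, DESeq2 with apeglm shrinkage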
Assay: shrunken log2 fold change of peptide-encoding DNA abundance (4.5 h post-induction vs induction); higher = less antimicrobial activity (less host growth inhibition)
Settings: time post-induction: 4.5 h; library: site-saturation at positions 5, 18, 19, 20

- sequence text: "RRIRLRPPRLPRPRPRPDSCPRP"
  measurement target: "Escherichia coli TOP10"
  shrunken log2 fold change: -0.851
- sequence text: "RRIRNRPPRLPRPRPRPQEFPRP"
  measurement target: "Escherichia coli TOP10"
  shrunken log2 fold change: -0.0043
- sequence text: "RRIRERPPRLPRPRPRPSINPRP"
  measurement target: "Escherichia coli TOP10"
  shrunken log2 fold change: -0.798
- sequence text: "RRIRARPPRLPRPRPRPVDKPRP"
  measurement target: "Escherichia coli TOP10"
  shrunken log2 fold change: 0.363
- sequence text: "RRIRNRPPRLPRPRPRPKHDPRP"
  measurement target: "Escherichia coli TOP10"
  shrunken log2 fold change: -0.287
- sequence text: "RRIRWRPPRLPRPRPRPYTMPRP"
  measurement target: "Escherichia coli TOP10"
  shrunken log2 fold change: -0.335
- sequence text: "RRIRERPPRLPRPRPRPVYMPRP"
  measurement target: "Escherichia coli TOP10"
  shrunken log2 fold change: -0.481
- sequence text: "RRIRQRPPRLPRPRPRPQICPRP"
  measurement target: "Escherichia coli TOP10"
  shrunken log2 fold change: -0.229
- sequence text: "RRIRERPPRLPRPRPRPHGMPRP"
  measurement target: "Escherichia coli TOP10"
  shrunken log2 fold change: 0.0601
- sequence text: "RRIRLRPPRLPRPRPRPDTGPRP"
  measurement target: "Escherichia coli TOP10"
  shrunken log2 fold change: -0.243
- sequence text: "RRIRERPPRLPRPRPRPSYEPRP"
  measurement target: "Escherichia coli TOP10"
  shrunken log2 fold change: -0.499
- sequence text: "RRIRDRPPRLPRPRPRPVHCPRP"
  measurement target: "Escherichia coli TOP10"
  shrunken log2 fold change: -0.0301
- sequence text: "RRIRLRPPRLPRPRPRPEFEPRP"
  measurement target: "Escherichia coli TOP10"
  shrunken log2 fold change: 0.0191
- sequence text: "RRIRNRPPRLPRPRPRPQEGPRP"
  measurement target: "Escherichia coli TOP10"
  shrunken log2 fold change: 0.0303
- sequence text: "RRIRFRPPRLPRPRPRPINGPRP"
  measurement target: "Escherichia coli TOP10"
  shrunken log2 fold change: -0.0164
- sequence text: "RRIRRRPPRLPRPRPRPICDPRP"
  measurement target: "Escherichia coli TOP10"
  shrunken log2 fold change: 0.309
- sequence text: "RRIRTRPPRLPRPRPRPPWGPRP"
  measurement target: "Escherichia coli TOP10"
  shrunken log2 fold change: 0.0724
- sequence text: "RRIRCRPPRLPRPRPRPMIWPRP"
  measurement target: "Escherichia coli TOP10"
  shrunken log2 fold change: -0.0837
- sequence text: "RRIRFRPPRLPRPRPRPCMQPRP"
  measurement target: "Escherichia coli TOP10"
  shrunken log2 fold change: -0.163
- sequence text: "RRIRGRPPRLPRPRPRPVKAPRP"
  measurement target: "Escherichia coli TOP10"
  shrunken log2 fold change: 0.659
- sequence text: "RRIRMRPPRLPRPRPRPPKSPRP"
  measurement target: "Escherichia coli TOP10"
  shrunken log2 fold change: 0.478
- sequence text: "RRIRIRPPRLPRPRPRPRGFPRP"
  measurement target: "Escherichia coli TOP10"
  shrunken log2 fold change: 0.199
- sequence text: "RRIRRRPPRLPRPRPRPKWYPRP"
  measurement target: "Escherichia coli TOP10"
  shrunken log2 fold change: 0.0824
- sequence text: "RRIRGRPPRLPRPRPRPVWQPRP"
  measurement target: "Escherichia coli TOP10"
  shrunken log2 fold change: 0.174
- sequence text: "RRIRIRPPRLPRPRPRPRTNPRP"
  measurement target: "Escherichia coli TOP10"
  shrunken log2 fold change: -0.159
- sequence text: "RRIRDRPPRLPRPRPRPLYQPRP"
  measurement target: "Escherichia coli TOP10"
  shrunken log2 fold change: -0.0432
- sequence text: "RRIRKRPPRLPRPRPRPVRYPRP"
  measurement target: "Escherichia coli TOP10"
  shrunken log2 fold change: 0.152
- sequence text: "RRIRIRPPRLPRPRPRPLEQPRP"
  measurement target: "Escherichia coli TOP10"
  shrunken log2 fold change: -0.419
- sequence text: "RRIRARPPRLPRPRPRPLAPPRP"
  measurement target: "Escherichia coli TOP10"
  shrunken log2 fold change: 0.619
- sequence text: "RRIRARPPRLPRPRPRPCYTPRP"
  measurement target: "Escherichia coli TOP10"
  shrunken log2 fold change: -0.486
- sequence text: "RRIRMRPPRLPRPRPRPTWMPRP"
  measurement target: "Escherichia coli TOP10"
  shrunken log2 fold change: 0.25
- sequence text: "RRIRARPPRLPRPRPRPAAIPRP"
  measurement target: "Escherichia coli TOP10"
  shrunken log2 fold change: 0.845
- sequence text: "RRIRIRPPRLPRPRPRPLGKPRP"
  measurement target: "Escherichia coli TOP10"
  shrunken log2 fold change: -0.248
- sequence text: "RRIRRRPPRLPRPRPRPFECPRP"
  measurement target: "Escherichia coli TOP10"
  shrunken log2 fold change: 0.036
- sequence text: "RRIRHRPPRLPRPRPRPYYTPRP"
  measurement target: "Escherichia coli TOP10"
  shrunken log2 fold change: -0.0493
- sequence text: "RRIRIRPPRLPRPRPRPYFIPRP"
  measurement target: "Escherichia coli TOP10"
  shrunken log2 fold change: -1.14
- sequence text: "RRIRMRPPRLPRPRPRPEKAPRP"
  measurement target: "Escherichia coli TOP10"
  shrunken log2 fold change: 1.52
- sequence text: "RRIRRRPPRLPRPRPRPRMKPRP"
  measurement target: "Escherichia coli TOP10"
  shrunken log2 fold change: 0.309
- sequence text: "RRIRCRPPRLPRPRPRPWLNPRP"
  measurement target: "Escherichia coli TOP10"
  shrunken log2 fold change: -0.752
- sequence text: "RRIRQRPPRLPRPRPRPSLWPRP"
  measurement target: "Escherichia coli TOP10"
  shrunken log2 fold change: 0.337
- sequence text: "RRIRGRPPRLPRPRPRPFCVPRP"
  measurement target: "Escherichia coli TOP10"
  shrunken log2 fold change: 0.392
- sequence text: "RRIRCRPPRLPRPRPRPQVYPRP"
  measurement target: "Escherichia coli TOP10"
  shrunken log2 fold change: -0.313
- sequence text: "RRIRPRPPRLPRPRPRPKRPPRP"
  measurement target: "Escherichia coli TOP10"
  shrunken log2 fold change: 0.465
- sequence text: "RRIRWRPPRLPRPRPRPWRKPRP"
  measurement target: "Escherichia coli TOP10"
  shrunken log2 fold change: -0.139
- sequence text: "RRIRARPPRLPRPRPRPYCEPRP"
  measurement target: "Escherichia coli TOP10"
  shrunken log2 fold change: 0.0687
- sequence text: "RRIRTRPPRLPRPRPRPCWAPRP"
  measurement target: "Escherichia coli TOP10"
  shrunken log2 fold change: -0.0904
- sequence text: "RRIRTRPPRLPRPRPRPDCAPRP"
  measurement target: "Escherichia coli TOP10"
  shrunken log2 fold change: 0.719
- sequence text: "RRIRTRPPRLPRPRPRPATRPRP"
  measurement target: "Escherichia coli TOP10"
  shrunken log2 fold change: 0.0996
- sequence text: "RRIRGRPPRLPRPRPRPDGRPRP"
  measurement target: "Escherichia coli TOP10"
  shrunken log2 fold change: 0.169
